Catalogue of GI50 values
# Tested on: IGROV-1
# procedureText: NCI tumour cell line growth inhibition, 48 h
Active and inactive are the calls of the source. Cut-off read from the data, not from the text of the source: active = GI50 up to about 1.1 µM and inactive = higher.

Worked set:
# compound, measuredTarget, reportedMeasurement
records = [
    ("COCC12CCC(OC)C34C5CC6(O)C(OC)CC(OC(C)=O)(C5C6OC(=O)c5ccccc5)C(C(OC)C13)C4N(C)C2 (stereo unspecified)", "IGROV-1", "> 100 µM (inactive)"),
    ("COc1ccc(-c2cc(=O)c3c(O)cc(C)cc3o2)cc1OC", "IGROV-1", "> 100 µM (inactive)"),
    ("Nc1nc(-c2cccs2)cs1", "IGROV-1", "47.3 µM (inactive)"),
    ("Nc1ccc(C(=O)NN2C(=O)C(Cl)C2c2ccc([N+](=O)[O-])cc2)cc1 (stereo unspecified)", "IGROV-1", "5.31 µM (inactive)"),
    ("C[C@H]1C=C2[C@@H]3CC(C)(C(=O)O)CC[C@]3(C)CC[C@]2(C)[C@]2(C)CC[C@H]3C(C)(C)[C@@H](OC(=O)c4cccc5c(=O)c6ccccc6[nH]c45)CC[C@]3(C)[C@@H]12 (stereo partly specified)", "IGROV-1", "> 100 µM (inactive)"),
    ("CC(=NNC(=S)Nc1ccccc1)c1cccc(C(C)=NNC(=S)Nc2ccccc2)n1", "IGROV-1", "2.08 µM (inactive)"),
    ("NC(Cc1ccccc1)P(=O)(O)O (stereo unspecified)", "IGROV-1", "> 100 µM (inactive)"),
    ("NNC(=O)c1cc([N+](=O)[O-])ccc1NC(=O)C12CC3CC(CC(C3)C1)C2", "IGROV-1", "1.9 µM (inactive)"),
    ("Cc1cc(=O)oc2cc(OC(=O)N(CCCl)CCCl)ccc12", "IGROV-1", "94.4 µM (inactive)"),
    ("OCCCCn1cc(Cn2ncc3c(SCc4ccccc4)ncnc32)nn1", "IGROV-1", "77.6 µM (inactive)"),
]

Which GI50 value belongs to CCC1(c2ccc(OC)c(OC)c2)CCN(S(=O)(=O)c2ccc(C)cc2)C1 (stereo unspecified) ?
> 100 µM (inactive)

Also need CCOC1c2nc3ccccc3nc2-c2ccccc2N1C(C)=O (stereo unspecified) , thanks.
> 100 µM (inactive)

Also need O=C(O)/C=C\C(=O)Nc1ccccn1 , thanks.
> 100 µM (inactive)

Also need N=C(N)NNC(=O)CCCCCCCC(=O)NNC(=N)N , thanks.
> 100 µM (inactive)

Also need O=C1c2ccccc2S(=O)(=O)c2c1cccc2[N+](=O)[O-] , thanks.
1.9 µM (inactive)

Also need OC(CCN1CCN(CCOC(c2ccc(F)cc2)c2ccc(F)cc2)CC1)c1ccc(Br)cc1 (stereo unspecified) , thanks.
4.57 µM (inactive)

Also need CNC(=O)CN(CC(=O)NC)C(=O)NC , thanks.
> 100 µM (inactive)

Also need O=C1NC(=O)C(C(c2ccc(Cl)cc2)C2C(=O)NC(=O)NC2=O)C(=O)N1.c1ccncc1 , thanks.
> 100 µM (inactive)

====

# System: MOLT-4
# procedureText: NCI tumour cell line growth inhibition, 48 h
Active and inactive are the calls of the source. Cut-off read from the data, not from the text of the source: active = GI50 up to about 1.1 µM and inactive = higher.
Write down the outcome that applies. Available outcomes: 1.0 (active), 0.0 (inactive)

# compound, assignedClass
records = [
    ("COc1cc(Cn2c(=S)ss/c2=N\\C(=S)N(C)C)cc(OC)c1OC", 0.0),
    ("COc1ccc(Nc2nc3cc(C(F)(F)F)ccc3n3cccc23)cc1OC", 0.0),
    ("CCOC(=O)/C(O)=C1\\C(=O)N(C)C(=O)C1c1cccc(OC)c1 (configuration not stated)", 0.0),
    ("c1ccc2c(c1)CCc1c(-c3n[nH]c4c3CCc3ccccc3-4)n[nH]c1-2", 0.0),
    ("COP(=O)(OC)OCN(C)CC/C=C(\\C)CC/C=C(\\C)CCC=C(C)C", 0.0),
    ("N=C(N)N/N=C/c1c[nH]c2ccccc12", 0.0),
]

State the result this test recorded for CCOC(=O)C(=CNC(=S)N/N=C1\C(=O)Nc2ccccc21)C(=O)OCC .
0.0

Also need CCCCCCCCCCCC(=O)c1c(O)cccc1O , thanks.
0.0

Also need C/C(=N\NC(=S)NC(C)C)c1nc2cccnc2[nH]1 , thanks.
0.0
